Assay Notes: protein stability index of a GFP-peptide fusion (GPS, HEK-293T) (PSI 1-6); higher = more stable;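 further: 24-mer peptide tiles fused after GFP, lentivirally expressed, FACS-sorted into six equal bins by GFP/DsRed ratio, decoded by Illumina sequencing, PSI is the read-weighted mean bin number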
Condition Context: treatment: MLN4924 1 uM, 8 h; c terminus: a fixed tail appended
Would you mind telling me the reported protein stability index of each entry?
Numbers only.

| Primary Sequence | protein stability index |
| --- | --- |
| LTLSQYILLDPILMFFIMAAMLSM [POMT2] | 2.95 |
| FYQLVWSALPFITYLENKGHRYPC [POP5] | 3.09 |
| AVKGSLGSDLGGPLPTDPMLGLAL [TSPAN10] | 3.06 |

For the 2 sequences below, give their protein stability index values.
1. PEIAQNFSAPDPPRPRPVSLSLRL [SMTNL2]
2. QRPFIRMSWEKEEGKSRHVDFQCV [BTBD10]

### Response
[3.04, 3.04]

FYI, the data here is from the supplement of paper PMC10567573.
